System: M14 melanoma
Experiment: NCI-60 one-dose screen, 48 h
Conditions: 10 µM unless noted
The panel holds about 83,000 compounds, 20% with a hit somewhere; the sample as a whole holds those more often. Activity calls are given as the source filed them. How the source made its calls: active means growth percent below 10; inactive means the rest.
Outcome codes: Yes = active, No = inactive

molecule	class.label
Cc1cccc([N+](=O)[O-])c1I	No
Cc1ccc(N)c(O)c1	No
CCOc1cc(/C=N\NC(=O)N/N=C/c2ccc(O)c(OCC)c2)ccc1O	No
O=C(Nc1ccccc1)Nc1ccc(C(=O)/C=C/c2ccc(N3CCCC3)cc2)cc1	No
CCn1cc(-c2ccnc(NCCNS(=O)(=O)c3ccc(Br)cc3)c2)c(-c2cccc(OC)c2)n1	No
Cn1cc(-c2noc(-c3cn(C)c4ncc(Br)cc34)n2)c2cc(Cl)ccc21	No
Cc1nc(-c2ccccc2)sc1CC#N	No
Cc1cnc([C@]23CC[C@@H](C)[C@H](C)[C@H]2C2=CC[C@@H]4[C@@]5(C)Cc6c([nH]c7ccccc67)C(C)(C)[C@@H]5CC[C@@]4(C)[C@]2(C)CC3)o1	No
Cc1ccc(-c2cc(-c3ccc(C)cc3)nc(N3CCN(CCNc4ccnc5cc(Cl)ccc45)CC3)n2)cc1	Yes
CCN(CC)c1ccc2cc(C(Nc3ccc(Cl)cc3)c3nnnn3C(C)(C)C)c(=O)oc2c1 (stereo unspecified)	No
O=C(N/N=C/c1c(Cl)cccc1Cl)c1cccc(Nc2ccnc(C(F)(F)F)c2)c1	No
c1ccc2c(c1)CN(CCCN1CCOCC1)C2	No
COC(=O)c1c(C)[nH]c(/C=C2\N=C(c3ccc[nH]3)C=C2OC)c1C	Yes
C[C@]12CCc3nc(Nc4ccccc4)sc3C1=CC[C@@H]1[C@@H]2CC[C@]2(C)/C(=N/NC(N)=S)CC[C@@H]12	No
CC1(C)C(=NO)C(C)(C)C1=NO	No
O=C(OCc1ccc2c(Cl)cc(Cl)c(O)c2n1)N1CCN(C(=O)c2cc3cc(F)ccc3[nH]2)CC1	Yes
Ic1ccc2[nH]cc(SSc3c[nH]c4ccc(I)cc34)c2c1	No
CCCn1ccnc1C(O)c1ccc(OCc2ccccc2)c(OC)c1 (stereo unspecified)	No
CC(=O)OC[C@]12CC[C@@H]([C@@H](C)C(N)=O)[C@@H]1[C@H]1CC[C@@H]3[C@@]4(C)CC[C@H](OC(C)=O)C(C)(C)[C@@H]4CC[C@@]3(C)[C@]1(C)CC2	Yes
CCN(CC)CC(C)Nc1ccc(C)c2sc3ccccc3c(=O)c12 (stereo unspecified)	Yes
Cc1ccccc1-n1nnc(C(=O)Nc2nc3ccc(F)cc3s2)c1C	No
CCCOc1ccc(-c2nc(-c3ccc(N)cc3)cs2)cc1	No
Cc1cccc(C[C@H](NC(=O)Nc2ccc(Cl)cc2F)C(=O)N[C@@H]2C(=O)N3C[C@H](O)C[C@H]3C(=O)N3CCCC[C@H]3C(=O)N[C@@H](C)C(=O)N3C[C@H](C)C[C@H]3C(=O)O[C@H]2C)c1	Yes
CC1(C)CC[C@]2(C(=O)OC(=O)[C@]34CCC(C)(C)C[C@@H]3C3=CC[C@@H]5[C@@]6(C)CCC(=O)C(C)(C)[C@@H]6CC[C@@]5(C)[C@]3(C)CC4)CC[C@]3(C)C(=CC[C@@H]4[C@@]5(C)CCC(=O)C(C)(C)[C@@H]5CC[C@]43C)[C@H]2C1	No
CC1(C)NCCC[C@]2(C)[C@H]3C=CC4=C5C[C@](C)(CO)CC[C@]5(C)CC[C@@]4(C)[C@]3(C)CC[C@@H]12	Yes
CCN(CC)CCS(=O)(=O)CCNc1ccnc2cc(Cl)ccc12	Yes
COC(=O)[C@H](CC(C)C)NC(=O)NC(=O)NC(=O)CI	No
O=S(=O)(NCCCNc1nccc(-c2c(-c3cccc(F)c3)nc3occn23)n1)c1cccc2ccccc12	No
COc1cc(NCc2cn(-c3ccc(C(=O)O)cc3)nc2-c2ccc(C(=O)O)cc2)cc(OC)c1OC	No
CC1(C)C(=O)/C(=C\c2cccnc2)C[C@]2(C)[C@H]3CC[C@@H]4[C@H]5[C@H](C(=O)/C=C/c6cccnc6)CC[C@]5(C(=O)O)CC[C@@]4(C)[C@]3(C)CC[C@@H]12	Yes
CCOC(=O)c1nn(C2CCCCO2)c2ccc(NC(=O)CN3CCCC3)cc12 (stereo unspecified)	No
O=[N+]([O-])c1ccc(O)c(-c2nc3ccccc3s2)c1	No
C[n+]1c2ccccc2nc2c(N)cc(N)cc21	No
Brc1ccc(-c2nnc3c4[nH]ccc4ncn23)cc1	No
COc1ccc(-c2c(C)nn3c(NCCN4CCOCC4)cc(C)nc23)cc1OC	No
COc1ccc2c(c1)C(C)Cc1c(Cl)nc(C)nc1N2C (stereo unspecified)	No
